- experimental-system: T1, human GITR overexpressed on CHO cells (CHO-GITR) (human, UniProt Q9Y5U5 26-241)
- T1 construct: whole, on cells; also called cell surface GITR protein; antigen expressed on the cell surface
- T1 sequence (looked up): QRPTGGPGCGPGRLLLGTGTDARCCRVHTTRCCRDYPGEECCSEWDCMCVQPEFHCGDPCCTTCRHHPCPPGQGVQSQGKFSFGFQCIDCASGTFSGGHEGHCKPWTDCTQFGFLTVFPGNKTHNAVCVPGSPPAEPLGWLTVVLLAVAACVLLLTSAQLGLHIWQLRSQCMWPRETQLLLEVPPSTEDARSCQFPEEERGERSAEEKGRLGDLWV
- method-notes: flow cytometry on CHO-GITR cells, PE anti-human Fc detection, MFI; direct binding titration, the table row is labelled IC50, nM is taken from the concentration axis
Assign pIC50 to each entry below.
Reminder that pIC50 means the negative base-10 logarithm of the concentration expressed in mol/L.

QUERY: Fill in: pIC50 of hcIgG-09 (antibody, V domains shown, also called heavy-chain antibody of Nb-09) VH: QVQLQESGGGLVQPGGSLRLSCGASGFTFSSTAMWWFRQAPGKGLEWVSSITSDVSGTYYADSVQGRFTISRDNGKNTVYLQMNSLRSEDTALYYCATSCGFSGGTWSCKYRGQGTQVTVSS is ___
RESULT: 8.31

QUERY: Looking for the measured pIC50 of hcIgG-20 (antibody, V domains shown, also called heavy-chain antibody of Nb-20) VH: QVQLQESGGGSVQAGGSLRLSCASSGYSRTSRWMAWFRQAPGKEREGVAAIYTGGSSTLYANSMADRVTISQDNAKNTVYLRMNNLKPEDTAMYYCAADKLAGDFWLVDRWRAWGQGTQVTVSS , can you help?
RESULT: 9.29

QUERY: Need pIC50, item hcIgG-07 (antibody, V domains shown, also called heavy-chain antibody of Nb-07) VH: QVQLQESGGGLVQAGGSLKLSCTVSGFAFGSSHMSWVRRAPGKGLEWVSTIHSGGGFGDYANSVQGRFTISRDVAKNTLYLQMNSLKPEDTAIYYCALATDWRKPPGQGTQVTVSS
RESULT: 8.84

QUERY: Recorded pIC50 of hcIgG-03 (antibody, V domains shown, also called heavy-chain antibody of Nb-03) VH: QVQLQESGGGSVQAGGSLRLSCAASGYTYSGYCMGWFRQAPGKEHEGVASIVSGLGRPYYADSVKGRFTISQDNAKNTVYLQMNSLKPEDTAMYYCAAEWATKLCSEIPATEWDYWGQGTQVTVSS , please.
RESULT: 6.99

Attribution: patent US20220267458A1
